Numbers sourced from patent US10688200B2.

Record form. Attribute: Biodistribution: Spleen. Fill in for each entry.
assay: Biodistribution of radiotracers in normal mice; format: in vivo, mouse; settings: normal male mice, 120 min
Mention the unit after the number when you answer.

Input: Recorded Biodistribution: Spleen of O=C(O)CCc1ccc(O)c(CN(CCN(CC(=O)O)Cc2cc(CCC(=O)NCCCCCC(=O)NCCCC[C@H](NC(=O)N[C@@H](CCC(=O)O)C(=O)O)C(=O)O)ccc2O)CC(=O)O)n1 [[^68Ga]4a, metal not drawn] , please.
Output: 2.83 ± 1.25 % dose/g

Input: What measured Biodistribution: Spleen goes with O=C(O)CCc1ccc2c(c1)C[N+]13CC[N+]45CC(=O)[O][68Ga-3]14([O]C(=O)C3)([O]2)[O]c1ccc(CCC(=O)NCCCCCC(=O)NCCCC[C@H](NC(=O)N[C@@H](CCC(=O)O)C(=O)O)C(=O)O)cc1C5 (some centres unmarked) [[^68Ga]1a, reference compound] ?
Output: 5.07 ± 2.68 % dose/g

Input: What does the record list as Biodistribution: Spleen for O=C(O)CC[C@H](NC(=O)N[C@@H](CCCCNC(=O)CCCCCNC(=O)CCc1ccc2c(n1)C[N+]13CC[N+]45CC(=O)[O][68Ga-3]14([O]C(=O)C3)([O]2)[O]c1ccc(CCC(=O)NCCCCCC(=O)NCCCC[C@H](NC(=O)N[C@@H](CCC(=O)O)C(=O)O)C(=O)O)nc1C5)C(=O)O)C(=O)O (some centres unmarked) [[^68Ga]3] ?
Output: 1.71 ± 0.56 % dose/g

Input: Requested read-out: Biodistribution: Spleen. Entry: O=C(O)CCc1ccc2c(c1)C[N+]13CC[N+]45CC(=O)[O][68Ga-3]14([O]C(=O)C3)([O]2)[O]c1ccc(CCC(=O)NCC(=O)N[C@@H](Cc2ccc(OCC(=O)N[C@@H](Cc3ccccc3)C(=O)NCCCC[C@H](NC(=O)N[C@@H](CCC(=O)O)C(=O)O)C(=O)O)cc2)C(=O)O)cc1C5 (some centres unmarked) [[^68Ga]5b]
Output: 1.39 ± 0.38 % dose/g

Input: For O=C(O)CC[C@H](NC(=O)N[C@@H](CCCCNC(=O)CCCCCNC(=O)CCc1ccc2c(c1)C[N+]13CC[N+]45CC(=O)[O][68Ga-3]14([O]C(=O)C3)([O]2)[O]c1ccc(CCC(=O)NCCNC(=O)CN2CCN(CC(=O)O)CCN(CC(=O)O)CCN(CC(=O)O)CC2)cc1C5)C(=O)O)C(=O)O (some centres unmarked) [[^68Ga]1g] , what is its reported Biodistribution: Spleen?
Output: 2.48 ± 0.91 % dose/g
